Target: human PCNA recombinant protein (Homo sapiens, UniProt P12004)
Construct: The full length human PCNA; made in house; host or cells: Escherichia coli BL21(DE3)
Sequence (P12004 whole entry): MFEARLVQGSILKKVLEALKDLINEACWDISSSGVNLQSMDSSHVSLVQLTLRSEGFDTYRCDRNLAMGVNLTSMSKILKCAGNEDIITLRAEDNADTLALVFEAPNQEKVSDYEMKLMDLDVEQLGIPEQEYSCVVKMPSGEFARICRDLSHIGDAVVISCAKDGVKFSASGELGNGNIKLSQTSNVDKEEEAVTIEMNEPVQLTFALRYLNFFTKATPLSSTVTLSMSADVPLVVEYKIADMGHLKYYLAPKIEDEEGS
Assay: Fluorescent polarization assay: competition with 5-FAM-labeled PL peptide for PCNA
Assay type: binding
Method: To determine the binding of the disclosed compounds to the human PCNA recombinant protein, a fluorescence polarization assay was employed. The assay is based on competition between a fluorescent tracer and increasing amounts of competing compound, i.e. a disclosed compound, determined as fluorescence polarization intensity (mP). […] Alternatively, the fluorescent polarization assay can be carried out as described in the following. […] FP values were calculated in millipolarization units. […]
PROPERTY_LABEL: IC50 (nM)
Response body: numeric value in nM, unit text excluded.

# value lookup — system human PCNA recombinant protein (Homo sapiens, UniProt P12004), readout IC50, item NCCc1cc(I)c(Oc2ccc(O)cc2)c(I)c1 [MLAG-087] 900

* * *

Target: human PCNA recombinant protein (Homo sapiens)
Construct: The full length human PCNA; made in house; host or cells: Escherichia coli BL21(DE3)
Assay: Fluorescent polarization assay: competition with 5-FAM-labeled PL peptide for PCNA
Assay type: binding
Settings: Table 2; inhibition of FAM-PL peptide binding to PCNA; read-out: IC50
PROPERTY_LABEL: IC50 (µM)
Response body: numeric value in µM, unit text excluded.

compound="O=C(O)CCc1ccc(I)c(Oc2ccc(O)cc2)c1I [MLAF-050]" property_label=IC50 observed_value=19
compound="Oc1ccc(Oc2c(I)cc(C[C@H]3C[NH2+][Pt-2]([Cl])([Cl])[NH2+]3)cc2I)cc1 [SWUA_018]" property_label=IC50 observed_value=0.27
compound="N[C@H](CNC(=O)CO)Cc1cc(I)c(Oc2ccc(O)cc2)c(I)c1 [MLAF-083]" property_label=IC50 observed_value=1.4
compound="CCCOCCNC(=O)CCc1cc(I)c(Oc2ccc(O)cc2)c(I)c1 [MLAE-054-3]" property_label=IC50 observed_value=8.3
compound="NC(=O)Cc1cc(I)c(Oc2ccc(O)c(I)c2)c(I)c1 [MLAG-088]" property_label=IC50 observed_value=6.6

# value lookup — system human PCNA recombinant protein (Homo sapiens), readout IC50, item O=C1NC[C@H](Cc2cc(I)c(Oc3ccc(O)cc3)c(I)c2)N1 [MLAG-060] 5.7

# value lookup — system human PCNA recombinant protein (Homo sapiens), readout IC50, item N[C@H](CO)Cc1cc(I)c(Oc2ccc(O)c(I)c2)c(I)c1 [MLAG-083] 0.6

# value lookup — system human PCNA recombinant protein (Homo sapiens), readout IC50, item NC[C@@H](N)Cc1cc(I)c(Oc2ccc(O)cc2)c(I)c1 [SWUA_017] 2.5

* * *

Molecular target: human PCNA recombinant protein (Homo sapiens)
Construct: The full length human PCNA; made in house; host or cells: Escherichia coli BL21(DE3)
Assay: Fluorescent polarization assay: competition with 5-FAM-labeled PL peptide for PCNA
Assay type: binding
Details: unlabeled PL-peptide against tagged PL-peptide; data not shown; read-out: IC50 in self-competition
pIC50: −log10 of the molar value. No end group written: not given here.
PROPERTY_LABEL: pIC50

Need pIC50, item SAVLQKKITDYFHPKK [PL peptide, reference compound] ~7.00

* * *

Biological target: human PCNA recombinant protein (Homo sapiens)
Construct: The full length human PCNA; made in house; host or cells: Escherichia coli BL21(DE3)
Test: Fluorescent polarization assay: competition with 5-FAM-labeled PL peptide for PCNA
Format: binding
Conditions: Table 2; inhibition of FAM-PL peptide binding to PCNA; read-out: IC50
Protocol: To determine the binding of the disclosed compounds to the human PCNA recombinant protein, a fluorescence polarization assay was employed. The assay is based on competition between a fluorescent tracer and increasing amounts of competing compound, i.e. a disclosed compound, determined as fluorescence polarization intensity (mP). […] Alternatively, the fluorescent polarization assay can be carried out as described in the following. […] FP values were calculated in millipolarization units. […]
PROPERTY_LABEL: IC50 (µM)
Response body: numeric value in µM, unit text excluded.

Solved cases below.
record_smiles=COc1ccc(S(=O)(=O)N[C@H](CO)Cc2cc(I)c(Oc3ccc(O)cc3)c(I)c2)cc1 property_label=IC50 result_units=µM observed_value=9.7
record_smiles=Cc1noc(C)c1S(=O)(=O)N[C@H](CO)Cc1cc(I)c(Oc2ccc(O)cc2)c(I)c1 property_label=IC50 result_units=µM observed_value=16

Need IC50, item `NCc1cc(I)c(Oc2ccc(O)cc2)c(I)c1` 1.6

Need IC50, item `O=C1CN(C(=O)Cc2cc(I)c(Oc3ccc(O)cc3)c(I)c2)CCN1` 9.1

Need IC50, item `O=C(CCc1ccc(I)c(Oc2ccc(O)cc2)c1I)NCCO` 9.5

Need IC50, item `Cc1cc(Oc2c(I)cc(C[C@H](N)CO)cc2I)ccc1O` 1.8

Need IC50, item `O=S(=O)(N[C@H](CO)Cc1cc(I)c(Oc2ccc(O)cc2)c(I)c1)c1ccc(O)cc1` 32

Need IC50, item `CN(C)C(=O)Cc1cc(I)c(Oc2ccc(O)cc2)c(I)c1` 7.5

Need IC50, item `CNC(=O)Cc1cc(I)c(Oc2ccc(O)cc2)c(I)c1` 8.3

Need IC50, item `CCNC(=O)Cc1cc(I)c(Oc2ccc(O)cc2)c(I)c1` 6.6

* * *

We begin with a simple list: items and their reported IC50.
Biological target: human PCNA recombinant protein (Homo sapiens)
Construct: The full length human PCNA; made in house; host or cells: Escherichia coli BL21(DE3)
Test: Fluorescent polarization assay: competition with 5-FAM-labeled PL peptide for PCNA
Format: binding
Conditions: Table 2; inhibition of FAM-PL peptide binding to PCNA; read-out: IC50
Response body: numeric value in nM, unit text excluded.

molecule="COCCCNC(=O)CCc1cc(I)c(Oc2ccc(O)cc2)c(I)c1 [MLAE-054-4]" experimental_target="human PCNA recombinant protein (Homo sapiens)" observed_value=5200
molecule="CCCCCCNC(=O)NC[C@@H](N)Cc1cc(I)c(Oc2ccc(O)cc2)c(I)c1 [MLAF-086]" experimental_target="human PCNA recombinant protein (Homo sapiens)" observed_value=1300
molecule="O=C(CCc1cc(I)c(Oc2ccc(O)c(C(=O)NCc3ccccc3)c2)c(I)c1)NCCO [MLAF-008]" experimental_target="human PCNA recombinant protein (Homo sapiens)" observed_value=400
molecule="O=C(CCc1cc(I)c(Oc2ccc(O)cc2)c(I)c1)N1CCCCC1 [MLAE-041]" experimental_target="human PCNA recombinant protein (Homo sapiens)" observed_value=2400
molecule="O=C(CCc1cc(I)c(Oc2ccc(O)c(C(=O)Nc3ccccc3)c2)c(I)c1)NCCO [MLAF-007]" experimental_target="human PCNA recombinant protein (Homo sapiens)" observed_value=400
molecule="O=S(=O)(N[C@H](CO)Cc1cc(I)c(Oc2ccc(O)cc2)c(I)c1)c1ccccc1 [MLAE-058-2]" experimental_target="human PCNA recombinant protein (Homo sapiens)" observed_value=6000

Need IC50, item N[C@H](CNC(=O)NCc1ccccc1)Cc1cc(I)c(Oc2ccc(O)cc2)c(I)c1 [MLAF-085] 1000

Need IC50, item CS(=O)(=O)NC(=O)CCc1cc(I)c(Oc2ccc(O)cc2)c(I)c1 [MLAE-038] 20000

* * *

Molecular target: human PCNA recombinant protein (Homo sapiens)
Construct: The full length human PCNA; made in house; host or cells: Escherichia coli BL21(DE3)
Experiment: Fluorescent polarization assay: competition with 5-FAM-labeled PL peptide for PCNA
Type: binding
Conditions: Table 2; inhibition of FAM-PL peptide binding to PCNA; read-out: IC50
We begin with a simple list: items and their reported pIC50.
Remember, pIC50 is on a log scale: it is -log10 of the molar concentration.

Need pIC50, item `COCCNC(=O)CCc1cc(I)c(Oc2ccc(O)cc2)c(I)c1` 5.31

Need pIC50, item `CS(=O)(=O)NC(=O)CCc1cc(I)c(Oc2ccc(O)c(C(=O)NCc3ccccc3)c2)c(I)c1` 5.85

Need pIC50, item `COc1ccc(Oc2c(I)cc(CC(=O)N3CCNC(=O)C3)cc2I)cc1` 5.68

* * *

We begin with a simple list: items and their reported IC50.
Biological target: human PCNA recombinant protein (Homo sapiens, UniProt P12004)
Construct: The full length human PCNA; made in house; host or cells: Escherichia coli BL21(DE3)
Assay: Fluorescent polarization assay: competition with 5-FAM-labeled PL peptide for PCNA
Format: binding
Settings: Table 2; inhibition of FAM-PL peptide binding to PCNA; read-out: IC50

molecule="COc1ccc(Oc2c(I)cc(CC(=O)NS(C)(=O)=O)cc2I)cc1 [MLAE-046]" observed_value="> 50 µM"

Need IC50, item Cc1cc(CCC(=O)O)cc(C)c1Oc1ccc(O)cc1 [NF021111] > 50 µM

Need IC50, item O=C1CN(C(=O)CCc2cc(I)c(Oc3ccc(O)cc3)c(I)c2)CCN1 [MLAE-034] > 50 µM

Need IC50, item O=C(Cc1cc(I)c(Oc2ccc(O)c(I)c2)c(I)c1)NCc1ccccc1 [MLAE-029-4] > 50 µM
